IC50 of neutralisation of SARS-CoV-2 pseudovirus (293T_(ACE2) cells) reference
# target_or_system: SARS-CoV-2 receptor binding domain (RBD) (Severe acute respiratory syndrome …, UniProt P0DTC2)
# protocol_text: cell-based or functional assay
observable: IC50 of neutralisation of SARS-CoV-2 pseudovirus (293T_(ACE2) cells)

* C156 (antibody, V domains shown) VH: QVQLVESGGGVVQPGRSLRLSCAASGFTFSNYGMHWVRQAPGKGLEWVAVISYDGNNKYYADSVKGRFTISRDNSKNTLYLQMNSLRAEDTAVYYCAKDPFPLAVAGTGYFDYWGQGTLVTVSS VL: SYELTQPPSVSVAPGQTARISCGGNNIGSKNVHWYQQKPGQAPVLVVYDDSDRPSGIPERFSGSNSGNTATLTISRVEAGDEADYYCQVWDSSSDPWVFGGGTKLTVL | > 1 µg/mL
* C130 (antibody, V domains shown) VH: QVQLVQSGAEVKKPGASVKVSCKASGYTFTNYYMHWVRQAPGQGLEWMGIINPSGGSTGYAQKFQGRVTMTRDTSTSTVYMELSSLRSEDTAVYYCARSRPTPDWYFDLWGRGTLVTVSS VL: SYELTQPPSVSVAPGKTARITCGGNNIGSKSVHWYQQKPGQAPVLVIYYDSDRPSGIPERFSGSNSGNTATLTISRVEAGDEADYYCQVWDSSSDHPGVVFGGGTKLTVL | > 1 µg/mL
